Reference for the values: ChEMBL document CHEMBL4725356

Protocol Text: Volume of distribution at steady state in Beagle dog at 0.3 mg/kg, iv or 3 mg/kg, po and measured up to 24 hrs by LC-MS/MS analysis
Assay type: ADME, organism-based, Canis lupus familiaris
Condition Notes: in vivo, read-out: Vdss
Metric: Vd (L/kg)
Numeric only. Scale: L/kg

Query block: Param item = Nc1nccc(COc2ccc3nc(N[C@@H]4CCCC[C@H]4O)sc3c2)c1Cl ; retrieve measured Vd.
Result block: 1.3

Query block: Param item = COc1cc(OCc2ccnc(Nc3cnn(C)c3)n2)cc2sc(N[C@H]3CCCC[C@@H]3O)nc12 ; retrieve measured Vd.
Result block: 3

---

Protocol Text: Oral bioavailability in cynomolgus monkey at 1 mg/kg and measured up to 24 hrs by LC-MS/MS analysis
Type: ADME, organism-based, Macaca fascicularis
Condition Notes: in vivo
Metric: bioavailability (%)
Numeric only. Scale: %

Query block: Param item = COc1cc(OCc2ccnc(Nc3cnn(C)c3)n2)cc2sc(N[C@H]3CCCC[C@@H]3O)nc12 ; retrieve measured bioavailability.
Result block: 21

Query block: Param item = Nc1nccc(COc2ccc3nc(N[C@@H]4CCCC[C@H]4O)sc3c2)c1Cl ; retrieve measured bioavailability.
Result block: 72

---

Protocol Text: Oral bioavailability in CD-1 mouse at 10 mg/kg and measured up to 24 hrs by LC-MS/MS analysis
Format: ADME, organism-based
Condition Notes: in vivo
Metric: bioavailability

Query block: Param item = COc1cc(OCc2ccnc(Nc3cnn(C)c3)n2)cc2sc(N[C@H]3CCCC[C@@H]3O)nc12 ; retrieve measured bioavailability.
Result block: 100%

Query block: Param item = Nc1nccc(COc2ccc3nc(N[C@@H]4CCCC[C@H]4O)sc3c2)c1Cl ; retrieve measured bioavailability.
Result block: > 90%

---

For each of the compounds below, state its Vd.
Protocol Text: Volume of distribution at steady state in CD-1 mouse at 0.3 mg/kg, iv or 10 mg/kg, po and measured up to 24 hrs by LC-MS/MS analysis
Format: ADME, organism-based
Condition Notes: in vivo, read-out: Vdss
Numeric only. Scale: L/kg

Query block: Param item = COc1cc(OCc2ccnc(Nc3cnn(C)c3)n2)cc2sc(N[C@H]3CCCC[C@@H]3O)nc12 ; retrieve measured Vd.
Result block: 1

Query block: Param item = Nc1nccc(COc2ccc3nc(N[C@@H]4CCCC[C@H]4O)sc3c2)c1Cl ; retrieve measured Vd.
Result block: 1.8

---

Protocol Text: Oral bioavailability in Beagle dog at 3 mg/kg and measured up to 24 hrs by LC-MS/MS analysis
Type: ADME, organism-based, Canis lupus familiaris
Condition Notes: in vivo
For each of the compounds below, state its bioavailability.
Numeric only. Scale: %

Query block: Param item = COc1cc(OCc2ccnc(Nc3cnn(C)c3)n2)cc2sc(N[C@H]3CCCC[C@@H]3O)nc12 ; retrieve measured bioavailability.
Result block: 37

Query block: Param item = Nc1nccc(COc2ccc3nc(N[C@@H]4CCCC[C@H]4O)sc3c2)c1Cl ; retrieve measured bioavailability.
Result block: 34

---

Protocol Text: Volume of distribution at steady state in cynomolgus monkey at 0.3 mg/kg, iv or 1 mg/kg, po and measured up to 24 hrs by LC-MS/MS analysis
Format: ADME, organism-based, Macaca fascicularis
Condition Notes: in vivo, read-out: Vdss
For each of the compounds below, state its Vd.
Numeric only. Scale: L/kg

Query block: Param item = Nc1nccc(COc2ccc3nc(N[C@@H]4CCCC[C@H]4O)sc3c2)c1Cl ; retrieve measured Vd.
Result block: 0.6

Query block: Param item = COc1cc(OCc2ccnc(Nc3cnn(C)c3)n2)cc2sc(N[C@H]3CCCC[C@@H]3O)nc12 ; retrieve measured Vd.
Result block: 0.45
